Each item that follows carries a reported Infectivity 10 μg/mL: relative percent of HIV infectivity compared to WT HD5.
- System: HIV-1JR-FL
- Assay type: cell-based
Remember to follow the number with its unit.

Sample answers from the record:
molecule	reported.measurement
L16A-HD5: HD5 mutant L16A, chemically synthesized; hydrophobicity (peptide, UniProt Q01523 20-94, looked up, variant L16A, Defensin-5) Defensin alpha 5: ESLQERADEATTQKQSGEDNQDLAISFAGNGLSALRTSGSQARATCYCRTGRCATRESASGVCEISGRLYRLCCR	10 ± 3%
Y4A-HD5: HD5 mutant Y4A, chemically synthesized; hydrophobicity (peptide, UniProt Q01523 20-94, looked up, variant Y4A, Defensin-5) Defensin alpha 5: ESLQERADEATTQKQSGEDNQDLAISFAGNGLSALRTSGSQARATCACRTGRCATRESLSGVCEISGRLYRLCCR	136 ± 42%
Y27A-HD5: HD5 mutant Y27A, chemically synthesized; hydrophobicity (peptide, UniProt Q01523 20-94, looked up, variant Y27A, Defensin-5) Defensin alpha 5: ESLQERADEATTQKQSGEDNQDLAISFAGNGLSALRTSGSQARATCYCRTGRCATRESLSGVCEISGRLARLCCR	28 ± 18%
human α-defensin 5 (peptide, UniProt Q01523 20-94, looked up, Defensin-5) Defensin alpha 5: ESLQERADEATTQKQSGEDNQDLAISFAGNGLSALRTSGSQARATCYCRTGRCATRESLSGVCEISGRLYRLCCR	100 ± 0%

// next entry
Item: R28A-HD5: HD5 mutant R28A, chemically synthesized; cationicity (peptide, UniProt Q01523 20-94, looked up, variant R28A, Defensin-5) Defensin alpha 5: ESLQERADEATTQKQSGEDNQDLAISFAGNGLSALRTSGSQARATCYCRTGRCATRESLSGVCEISGRLYALCCR | Infectivity 10 μg/mL: relative percent of HIV infectivity compared to WT HD5: 66 ± 5%
